STUDY SYSTEM: Cholinesterase (Equus caballus)
Sequence (P81908 whole entry): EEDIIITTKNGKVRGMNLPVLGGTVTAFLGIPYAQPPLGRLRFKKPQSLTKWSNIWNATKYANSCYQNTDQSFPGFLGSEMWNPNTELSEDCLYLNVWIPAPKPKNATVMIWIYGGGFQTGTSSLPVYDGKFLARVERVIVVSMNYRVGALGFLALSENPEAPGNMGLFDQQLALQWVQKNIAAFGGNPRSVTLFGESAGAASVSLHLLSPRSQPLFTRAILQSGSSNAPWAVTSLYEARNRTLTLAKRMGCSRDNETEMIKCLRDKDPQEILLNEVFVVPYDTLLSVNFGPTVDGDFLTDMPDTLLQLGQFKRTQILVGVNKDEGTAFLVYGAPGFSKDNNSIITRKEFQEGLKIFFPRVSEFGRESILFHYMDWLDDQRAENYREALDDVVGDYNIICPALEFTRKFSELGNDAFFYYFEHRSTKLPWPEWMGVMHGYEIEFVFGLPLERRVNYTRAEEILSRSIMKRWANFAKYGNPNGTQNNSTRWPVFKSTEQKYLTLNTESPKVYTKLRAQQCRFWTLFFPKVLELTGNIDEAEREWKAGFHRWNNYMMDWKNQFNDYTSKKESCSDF
pIC50: −log10 of the molar value.
Quick reference for pIC50 among some compounds
READOUT KIND: pIC50

sample_smiles=COc1nc2nc3c(c(N)c2c(-c2ccccc2)c1C#N)CCCC3 readout_kind=pIC50 modifier== recorded_value=5.29
sample_smiles=CN(C)c1nc2nc3c(c(N)c2c(-c2ccccc2)c1C#N)CCCC3 readout_kind=pIC50 modifier== recorded_value=5.12
sample_smiles=N#Cc1c(Cl)nc2nc3c(c(N)c2c1-c1ccccc1)CCCC3 readout_kind=pIC50 modifier=< recorded_value=4.52
sample_smiles=CN(C)c1nc2nc3c(c(N)c2cc1C#N)CCCC3 readout_kind=pIC50 modifier== recorded_value=5.28
sample_smiles=N#Cc1cc2c(N)c3c(nc2nc1Cl)CCCC3 readout_kind=pIC50 modifier=< recorded_value=4.52
sample_smiles=N#Cc1cc2c(N)c3c(nc2nc1N1CCCC1)CCCC3 readout_kind=pIC50 modifier== recorded_value=5.25
sample_smiles=N#Cc1cc2c(N)c3c(nc2nc1Cl)CCN(Cc1ccccc1)C3 readout_kind=pIC50 modifier=< recorded_value=4.00
sample_smiles=CCOc1nc2nc3c(c(N)c2cc1C#N)CCCC3 readout_kind=pIC50 modifier=< recorded_value=4.52
sample_smiles=COc1nc2nc3c(c(N)c2cc1C#N)CCCC3 readout_kind=pIC50 modifier== recorded_value=5.02
sample_smiles=N#Cc1cc2c(N)c3c(nc2nc1N1CCCCC1)CCCC3 readout_kind=pIC50 modifier== recorded_value=5.44
sample_smiles=COc1nc2nc3c(c(N)c2cc1C#N)CN(Cc1ccccc1)CC3 readout_kind=pIC50 modifier=< recorded_value=4.00
sample_smiles=C#CCNc1nc2nc3c(c(N)c2cc1C#N)CCCC3 readout_kind=pIC50 modifier== recorded_value=5.59

----------
STUDY SYSTEM: Acetylcholinesterase (Electrophorus electricus, UniProt O42275)
Sequence (O42275 whole entry): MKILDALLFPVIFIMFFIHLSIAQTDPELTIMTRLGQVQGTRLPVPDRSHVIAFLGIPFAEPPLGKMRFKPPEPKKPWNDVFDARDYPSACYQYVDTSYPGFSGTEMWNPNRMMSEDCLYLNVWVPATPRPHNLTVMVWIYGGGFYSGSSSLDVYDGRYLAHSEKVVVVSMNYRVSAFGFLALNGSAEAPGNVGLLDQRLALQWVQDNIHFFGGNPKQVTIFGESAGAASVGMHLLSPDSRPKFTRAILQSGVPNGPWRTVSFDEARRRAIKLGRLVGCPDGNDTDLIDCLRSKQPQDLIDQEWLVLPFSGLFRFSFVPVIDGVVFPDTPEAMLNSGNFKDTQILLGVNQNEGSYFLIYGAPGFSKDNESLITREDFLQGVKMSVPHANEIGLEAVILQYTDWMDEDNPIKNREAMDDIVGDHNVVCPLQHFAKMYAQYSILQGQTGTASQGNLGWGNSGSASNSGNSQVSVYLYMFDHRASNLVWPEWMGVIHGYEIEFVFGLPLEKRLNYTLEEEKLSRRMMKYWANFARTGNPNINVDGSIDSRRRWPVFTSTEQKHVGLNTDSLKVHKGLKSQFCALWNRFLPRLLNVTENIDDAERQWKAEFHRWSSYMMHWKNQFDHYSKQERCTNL
pIC50: −log10 of the molar value.
// reported pIC50 per item
READOUT KIND: pIC50

sample_smiles=N#Cc1cc2c(N)c3c(nc2nc1N1CCCCC1)CCCC3 study_system="Acetylcholinesterase (Electrophorus electricus, UniProt O42275)" readout_kind=pIC50 modifier== recorded_value=7.60
sample_smiles=CN(C)c1nc2nc3c(c(N)c2c(-c2ccccc2)c1C#N)CCCC3 study_system="Acetylcholinesterase (Electrophorus electricus, UniProt O42275)" readout_kind=pIC50 modifier== recorded_value=7.05
sample_smiles=N#Cc1cc2c(N)c3c(nc2nc1Cl)CCN(Cc1ccccc1)C3 study_system="Acetylcholinesterase (Electrophorus electricus, UniProt O42275)" readout_kind=pIC50 modifier== recorded_value=6.46
sample_smiles=COc1nc2nc3c(c(N)c2cc1C#N)CCCC3 study_system="Acetylcholinesterase (Electrophorus electricus, UniProt O42275)" readout_kind=pIC50 modifier== recorded_value=7.22
sample_smiles=N#Cc1cc2c(N)c3c(nc2nc1N1CCCC1)CCCC3 study_system="Acetylcholinesterase (Electrophorus electricus, UniProt O42275)" readout_kind=pIC50 modifier== recorded_value=7.37
sample_smiles=N#Cc1c(Cl)nc2nc3c(c(N)c2c1-c1ccccc1)CCCC3 study_system="Acetylcholinesterase (Electrophorus electricus, UniProt O42275)" readout_kind=pIC50 modifier=< recorded_value=4.52
sample_smiles=C#CCNc1nc2nc3c(c(N)c2cc1C#N)CCCC3 study_system="Acetylcholinesterase (Electrophorus electricus, UniProt O42275)" readout_kind=pIC50 modifier== recorded_value=7.52
sample_smiles=COc1nc2nc3c(c(N)c2cc1C#N)CN(Cc1ccccc1)CC3 study_system="Acetylcholinesterase (Electrophorus electricus, UniProt O42275)" readout_kind=pIC50 modifier== recorded_value=6.46
sample_smiles=CN(C)c1nc2nc3c(c(N)c2cc1C#N)CCCC3 study_system="Acetylcholinesterase (Electrophorus electricus, UniProt O42275)" readout_kind=pIC50 modifier== recorded_value=7.85
sample_smiles=N#Cc1cc2c(N)c3c(nc2nc1Cl)CCCC3 study_system="Acetylcholinesterase (Electrophorus electricus, UniProt O42275)" readout_kind=pIC50 modifier== recorded_value=5.30
sample_smiles=COc1nc2nc3c(c(N)c2c(-c2ccccc2)c1C#N)CCCC3 study_system="Acetylcholinesterase (Electrophorus electricus, UniProt O42275)" readout_kind=pIC50 modifier== recorded_value=7.10
sample_smiles=CCOc1nc2nc3c(c(N)c2cc1C#N)CCCC3 study_system="Acetylcholinesterase (Electrophorus electricus, UniProt O42275)" readout_kind=pIC50 modifier== recorded_value=7.30
